The values you see were collected from ChEMBL document CHEMBL6103561.

So I've got IC50 readings for Induced myeloid leukemia cell differentiation protein Mcl-1 (Homo sapiens), take a look.
Provide the reading as a plain figure in µM.

compound.string	IC50, µM
Cc1c(-c2cccc3c(CCCOc4cccc5ccccc45)c(C(=O)O)n(C)c23)c(COc2ccc(B(O)O)c(C=O)c2)nn1C	4.2

Please turn your attention to the following entry.
QUERY: Look at this compound and give its reported IC50. C#Cc1ccc(OCc2nn(C)c(C)c2-c2cccc3c(CCCOc4cccc5ccccc45)c(C(=O)O)n(C)c23)cc1C=O
RESULT: 4.2

====

So I've got Ki readings for Induced myeloid leukemia cell differentiation protein Mcl-1 (Homo sapiens, UniProt Q07820), take a look.
Provide the reading as a plain figure in nM.

QUERY: Look at this compound and give its reported Ki. CC(=O)N1CCN(c2ccc(OCc3cccc(-c4ccc5c(-c6cccc(C(F)(F)F)c6)cn(CCC(=O)O)c5c4)c3)cc2)CC1
RESULT: 370

QUERY: Now consider O=C(O)CCn1cc(-c2cccc(C(F)(F)F)c2)c2ccc(-c3ccccc3)cc21 .
RESULT: 410

====

target: Bcl-2-like protein 1 (Homo sapiens); assay: Binding affinity to BCL-XL (unknown origin) assessed as inhibition constant incubated for 60 mins by TR-FRET assay
Sequence (Q07817 whole entry): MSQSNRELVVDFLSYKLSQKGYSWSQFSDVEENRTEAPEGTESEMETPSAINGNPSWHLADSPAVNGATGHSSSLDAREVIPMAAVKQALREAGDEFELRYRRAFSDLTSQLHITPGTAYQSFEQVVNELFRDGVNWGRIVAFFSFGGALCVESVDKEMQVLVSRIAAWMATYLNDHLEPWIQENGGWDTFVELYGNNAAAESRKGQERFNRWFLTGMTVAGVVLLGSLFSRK
assay.metric: Ki (nM)
Provide the reading as a plain figure in nM.

compound.string	target.or.system	readout.unit	Ki
COCCOCn1nc(C)c2c1CSCc1cc(n(C)n1)CCc1cc(c3ccc(F)cc3c1)OCCCn1c(C(=O)O)c(C)c3c-2c(Cl)ccc31	Bcl-2-like protein 1 (Homo sapiens)	nM	0.015

QUERY: Look at this compound and give its reported Ki. COCCOCc1nn(C)c2c1CSCc1cc(n(C)n1)CSc1cc(c3ccc(F)cc3c1)OCCCc1c(C(=O)O)n(C)c3c-2c(Cl)ccc13
RESULT: 0.018

QUERY: Now consider COCCOCc1nn(C)c2c1CSCc1cc(n(C)n1)CSc1cc(c3ccc(F)cc3c1)OCCCc1c(C(=O)O)n(CCN3CCOCC3)c3c-2c(Cl)ccc13 .
RESULT: 0.02

====

tested on: OPM-2; assay: Antiproliferative activity against human OPM-2 cells
assay.metric: log10(IC50) (log10 of the value in nM)
Scale: log10; quantity: IC50; unit before log: nM

compound	assay.metric	readout.value
CO[C@H]1/C(F)=C/C[C@H](C)[C@@H](C)S(=O)(=O)NC(=O)c2ccc3c(c2)N(C[C@@H]2CCO[C@H]21)C[C@@]1(CCCc2cc(Cl)ccc21)CO3	log10(IC50)	2.28
COc1n[nH]cc1C(=O)NS1(=O)=NC(=O)c2ccc3c(c2)N(C[C@@H]2CCO[C@H]2[C@H](OC)/C(F)=C/C[C@H](C)C1)C[C@@]1(CCCc2cc(Cl)ccc21)CO3 (stereo not given in full)	log10(IC50)	1.64

QUERY: Look at this compound and give its reported log10(IC50). CO[C@@H]1/C(F)=C/C[C@H](C)[C@@H](C)S(=O)(=O)NC(=O)c2ccc3c(c2)N(C[C@@H]2CCO[C@H]21)C[C@@]1(CCCc2cc(Cl)ccc21)CO3
RESULT: 3.05

QUERY: Now consider CO[C@@]1(CN2CCN3CCCC[C@@H]3C2)/C=C/C[C@H](C)[C@@H](C)S(=O)(=O)NC(=O)c2ccc3c(c2)N(C[C@@H]2CC[C@H]21)C[C@@]1(CCCc2cc(Cl)ccc21)CO3 .
RESULT: 1.70

QUERY: Now consider CO[C@H]1/C=C/C[C@H](C)[C@@H](C)S(=O)(=O)NC(=O)c2ccc3c(c2)N(C[C@@H]2CCO[C@H]21)C[C@@]1(CCCc2cc(Cl)ccc21)CO3 .
RESULT: 2.64
